biological target: FGFR2IIIb-Fc (human, UniProt P21802); assay: competition ELISA, FGF1
Sequence (P21802 22-377): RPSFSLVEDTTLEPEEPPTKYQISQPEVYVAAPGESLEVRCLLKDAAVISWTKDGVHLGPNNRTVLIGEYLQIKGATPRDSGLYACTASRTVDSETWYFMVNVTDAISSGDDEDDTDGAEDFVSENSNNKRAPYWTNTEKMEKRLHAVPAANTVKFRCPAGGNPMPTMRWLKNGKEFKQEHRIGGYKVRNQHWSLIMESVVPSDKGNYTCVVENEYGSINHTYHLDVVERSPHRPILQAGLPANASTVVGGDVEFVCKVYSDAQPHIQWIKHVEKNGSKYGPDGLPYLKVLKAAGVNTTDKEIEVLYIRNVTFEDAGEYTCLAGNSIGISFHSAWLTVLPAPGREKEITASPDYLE

[
  {
    "binder": "III-13 (antibody, V domains shown) VH: QVQLVQSGAEVKKPGSSVKVSCKASGYTFAIYNMHWVRQAPGQGLEWIGAIYPDNGDTSYNQKFKGKATLTADKSTSTAYMELSSLRSEDTAVYYCARGDFGYWGQGTLVTVSS VL: DIVMTQSPSSLSASVGDRVTITCKASQDVNIDVAWYQQKPGKAPKLLIYLASYRYTGVPSRFSGSGSGTDFTFTISSLQPEDFATYYCQQTYSTPYTFGQGTKLEIK",
    "IC50 / µg/mL": 0.966
  }
]
